Target: Jak2 (UniProt O60674)
Sequence (O60674 whole entry, looked up): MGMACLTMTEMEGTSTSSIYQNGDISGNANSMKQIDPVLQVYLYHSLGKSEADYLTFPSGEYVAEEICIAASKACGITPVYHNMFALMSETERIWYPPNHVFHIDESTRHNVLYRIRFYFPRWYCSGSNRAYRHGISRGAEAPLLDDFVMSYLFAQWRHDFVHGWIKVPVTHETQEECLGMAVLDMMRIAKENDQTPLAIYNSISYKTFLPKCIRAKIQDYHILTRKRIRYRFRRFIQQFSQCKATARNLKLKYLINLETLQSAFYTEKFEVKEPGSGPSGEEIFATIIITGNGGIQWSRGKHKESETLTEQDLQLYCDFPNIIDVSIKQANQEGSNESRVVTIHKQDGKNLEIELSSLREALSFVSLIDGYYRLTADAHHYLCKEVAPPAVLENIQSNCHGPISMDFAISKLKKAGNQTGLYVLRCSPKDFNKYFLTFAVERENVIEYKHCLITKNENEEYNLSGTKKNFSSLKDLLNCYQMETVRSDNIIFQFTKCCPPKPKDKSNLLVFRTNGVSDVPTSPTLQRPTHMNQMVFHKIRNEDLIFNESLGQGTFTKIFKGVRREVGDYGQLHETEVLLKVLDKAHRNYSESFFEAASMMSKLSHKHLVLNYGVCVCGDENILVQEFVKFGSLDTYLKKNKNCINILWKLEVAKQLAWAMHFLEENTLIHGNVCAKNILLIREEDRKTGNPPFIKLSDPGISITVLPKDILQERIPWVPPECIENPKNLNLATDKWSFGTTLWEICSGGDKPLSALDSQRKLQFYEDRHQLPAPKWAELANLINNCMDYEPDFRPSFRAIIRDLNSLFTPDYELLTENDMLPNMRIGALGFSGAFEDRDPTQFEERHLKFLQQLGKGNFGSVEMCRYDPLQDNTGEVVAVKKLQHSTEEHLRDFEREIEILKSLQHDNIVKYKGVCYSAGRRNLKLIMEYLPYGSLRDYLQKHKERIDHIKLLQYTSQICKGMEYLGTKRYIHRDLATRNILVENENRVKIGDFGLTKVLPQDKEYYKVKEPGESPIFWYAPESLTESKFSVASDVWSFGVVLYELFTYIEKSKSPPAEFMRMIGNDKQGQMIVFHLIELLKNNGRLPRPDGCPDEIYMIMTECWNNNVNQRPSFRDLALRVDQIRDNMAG
Experiment: phosphorylation enrichment, bacterial display (enrichment ratio); higher = better substrate or ligand; peptides without Tyr show the background
Field: class. Source value: phosphorylation enrichment. Ranges: low bracket (below 0.7), middle bracket (0.7 to below 1), high bracket (1 or more)

query: Hello team, could you let me know which band the following sequence falls into: QSSEGYGLGDR [KIAA1210_Y564]
result: high bracket

query: Hello team, could you let me know which band the following sequence falls into: LRFDSYSSFCN [SLC20A2_Y433_YF]
result: high bracket

query: Hello team, could you let me know which band the following sequence falls into: VDGSVYKLHPS [GCK_Y413]
result: middle bracket

query: Hello team, could you let me know which band the following sequence falls into: ILGLEYSLRVP [HELZ2_Y1304]
result: high bracket

query: Hello team, could you let me know which band the following sequence falls into: SSAETYSRMRL [NBEAL2_Y1835]
result: low bracket

query: Hello team, could you let me know which band the following sequence falls into: TLSGIYQYSIA [FOXL2_Y81_I84S]
result: low bracket

query: Hello team, could you let me know which band the following sequence falls into: LSSNLYFRWLT [CNGA3_Y168_P163L_YF]
result: high bracket

query: Hello team, could you let me know which band the following sequence falls into: SLFNGYVYSGM [NEIL3_Y71_V76M]
result: high bracket

query: Hello team, could you let me know which band the following sequence falls into: SSTAMYSAAGR [PSMB1_Y8_P11A]
result: low bracket

query: Hello team, could you let me know which band the following sequence falls into: ECKETYHEGEC [PRKN_Y372_A371T]
result: high bracket

query: Hello team, could you let me know which band the following sequence falls into: FDDIAYIQKTL [PIK3CA_Y1021_R1023Q]
result: middle bracket

query: Hello team, could you let me know which band the following sequence falls into: AELVQYYMEHH [PTPN11_Y80]
result: high bracket

query: Hello team, could you let me know which band the following sequence falls into: VMSGPYELKAL [IL1B_Y140]
result: low bracket

query: Hello team, could you let me know which band the following sequence falls into: RLTEGYTGPFK [ZNF862_Y181_I178T]
result: low bracket

query: Hello team, could you let me know which band the following sequence falls into: ADKAAYLQNLN [MYH1_Y389]
result: low bracket

query: Hello team, could you let me know which band the following sequence falls into: QYPDVYAREEV [CRX_Y67]
result: high bracket

query: Hello team, could you let me know which band the following sequence falls into: INVTIYGKTFR [EFHC1_Y177_I174V]
result: high bracket

query: Hello team, could you let me know which band the following sequence falls into: AYRRGYFDEEM [PLEC_Y2971]
result: middle bracket

query: Hello team, could you let me know which band the following sequence falls into: DFKIIYIVPMR [SNRNP200_Y540_A542V]
result: middle bracket

query: Hello team, could you let me know which band the following sequence falls into: RGGDSYGGPPR [RBMX_Y190_R187G]
result: low bracket

query: Hello team, could you let me know which band the following sequence falls into: AFGGGYGGVLT [KRT19_Y65_YF]
result: low bracket

query: Hello team, could you let me know which band the following sequence falls into: GGEEFYVHFVG [KAT8_Y90_R86G_YF]
result: high bracket

query: Hello team, could you let me know which band the following sequence falls into: PPLMLYNPTTF [EGFR_Y270_YF]
result: high bracket

query: Hello team, could you let me know which band the following sequence falls into: TEQMAYCPIQC [SHC4_Y403]
result: high bracket

query: Hello team, could you let me know which band the following sequence falls into: TLKDVYDDGKY [RPS6KA3_Y483]
result: middle bracket

query: Hello team, could you let me know which band the following sequence falls into: RQIQSYTCEID [DES_Y331_H326R]
result: middle bracket

query: Hello team, could you let me know which band the following sequence falls into: CTTIPYNYMCN [TP53_Y234_H233P]
result: middle bracket

query: Hello team, could you let me know which band the following sequence falls into: DSMQSYDLDFP [UNC13B_Y243_YF]
result: high bracket

====

Biological target: SHP2-C SH2;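 also: peptide library displayed on the E. coli surface as eCPX fusions, selected cells deep-sequenced, score is each peptide's frequency after selection divided by its frequency in the input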
Test: SH2 binding enrichment of the phosphorylated peptide, bacterial display (enrichment ratio); higher = better substrate or ligand; peptides without Tyr show the background
Please go through the items and note down their SH2 binding enrichment.
Please reply with the number alone, leaving off any unit.

Item: QKLPSYILENN [VPS13B_Y2774] | SH2 binding enrichment: 0.762

Item: PTFEHYANSTQ [SLC12A3_Y70_YF] | SH2 binding enrichment: 0.576

Item: AKLKDYFIFNK [CCDC42_Y149_YF] | SH2 binding enrichment: 0.847

Item: LLKKVYLMLDN [STAT1_Y203_M202V] | SH2 binding enrichment: 0.793

Item: GPKSTYISSAG [GOLGA5_Y62_A67G] | SH2 binding enrichment: 0.581

Item: IAAEYYDNLPH [DEGS1_Y284] | SH2 binding enrichment: 0.542

Item: VYLGAYDCFLP [SLC22A5_Y486_R488C] | SH2 binding enrichment: 1.36

====

Please go through the items and note down their phosphorylation enrichment.
Test system: Fer (mouse)
Experiment: phosphorylation enrichment, bacterial display (enrichment ratio); higher = better substrate or ligand; peptides without Tyr show the background
Please reply with the number alone, leaving off any unit.

Item: RPPFTYATLIH [FOXP3_Y342_R347H] | phosphorylation enrichment: 0.766

Item: FGCTFYNQAIM [MCCC2_Y196_R193C] | phosphorylation enrichment: 0.647

Item: PRAEWYRDDLL [MYOM2_Y317_V321L] | phosphorylation enrichment: 0.502

Item: GGEEFYVHFVG [KAT8_Y90_R86G_YF] | phosphorylation enrichment: 0.592

Item: IFGVSYDEFRF [CFTR_Y512_YF] | phosphorylation enrichment: 1.52

Item: ARRHPYFFAPE [ALB_Y172_Y174F] | phosphorylation enrichment: 0.559

Item: RAADFYSQQMA [GBP6_Y334_YF] | phosphorylation enrichment: 0.538

Item: IHFAIYLLKYS [ARMC9_Y107] | phosphorylation enrichment: 0.486

Item: QNTGDYCDLFG [PTPN11_Y62_Y63C_YF] | phosphorylation enrichment: 0.966

Item: LQTYRYHGHSM [PDHA1_Y289] | phosphorylation enrichment: 0.455

Item: PEYVVYKPQME [CCRL2_Y170_F167Y] | phosphorylation enrichment: 1.09

Item: MKGDFYCFLAE [YWHAG_Y131_R132C_YF] | phosphorylation enrichment: 0.644

Item: TPIFPYLLPKS [PLD2_Y580_T577I_YF] | phosphorylation enrichment: 0.551

====

Target: FGFR3 (UniProt P22607)
Sequence (P22607 whole entry, looked up): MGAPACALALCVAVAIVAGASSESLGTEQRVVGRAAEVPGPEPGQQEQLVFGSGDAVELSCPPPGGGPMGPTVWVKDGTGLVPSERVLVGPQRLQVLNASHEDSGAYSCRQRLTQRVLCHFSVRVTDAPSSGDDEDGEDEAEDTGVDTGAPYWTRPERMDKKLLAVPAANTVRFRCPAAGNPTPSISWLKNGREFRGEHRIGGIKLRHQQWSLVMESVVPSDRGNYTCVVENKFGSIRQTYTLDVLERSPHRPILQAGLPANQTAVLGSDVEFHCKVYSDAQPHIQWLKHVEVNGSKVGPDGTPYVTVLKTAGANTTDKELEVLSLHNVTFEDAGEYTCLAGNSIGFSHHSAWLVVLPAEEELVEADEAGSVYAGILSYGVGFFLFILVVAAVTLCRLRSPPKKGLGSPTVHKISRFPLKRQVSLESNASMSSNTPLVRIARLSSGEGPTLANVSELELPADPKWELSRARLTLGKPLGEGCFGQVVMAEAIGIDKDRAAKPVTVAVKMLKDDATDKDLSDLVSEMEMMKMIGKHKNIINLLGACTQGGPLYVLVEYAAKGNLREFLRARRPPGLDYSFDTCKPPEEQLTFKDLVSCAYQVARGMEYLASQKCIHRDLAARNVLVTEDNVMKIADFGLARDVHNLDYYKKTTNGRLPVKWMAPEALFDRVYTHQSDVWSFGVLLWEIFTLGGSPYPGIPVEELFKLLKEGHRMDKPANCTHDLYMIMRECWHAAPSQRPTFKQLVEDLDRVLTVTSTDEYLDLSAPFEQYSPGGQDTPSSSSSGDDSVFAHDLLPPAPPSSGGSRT
Assay: phosphorylation enrichment, bacterial display (enrichment ratio); higher = better substrate or ligand; peptides without Tyr show the background
Please go through the items and note down their phosphorylation enrichment.

Item: LQTYRYHGHSM [PDHA1_Y289] | phosphorylation enrichment: 0.395

Item: WDLPEYSFKDP [ITGA3_Y237_S235P_YF] | phosphorylation enrichment: 0.836

Item: LANNEYYFQVC | phosphorylation enrichment: 12.9

Item: MARDIYQASFF [LTK_Y672_R673Q_YF] | phosphorylation enrichment: 0.564

Item: GSERDYTFEEL [EIF2S2_Y174_YF] | phosphorylation enrichment: 0.749

Item: PQAVTYAEVKH [LILRB4_Y360_K362E] | phosphorylation enrichment: 0.625

Item: QGRQTYLLQPA [DDR2_Y813_P815L] | phosphorylation enrichment: 0.484

Item: VDTLWYKFLKR [EPM2A_Y86_F84L] | phosphorylation enrichment: 0.611

Item: KELAKYYKLHH [AK7_Y390_N389K] | phosphorylation enrichment: 0.418

Item: KRELRYMHSRV [ABCD1_Y281_G277R] | phosphorylation enrichment: 0.447

Item: EFITRYIASLK [PSMA7_Y110_YF] | phosphorylation enrichment: 0.536

Item: KKRSVYIKVLF [CC2D2A_Y683_L684I] | phosphorylation enrichment: 0.515

Item: CPTIHYNFMCN [TP53_Y234_T230P_YF] | phosphorylation enrichment: 0.79

Item: LFQAKYQIRFR [CRLF1_Y272_YF] | phosphorylation enrichment: 1.35

Item: NFSKMYCNPDA [KNL1_Y489_A486S_YF] | phosphorylation enrichment: 0.802

Item: PGVDRYSLGTS [C5orf42_Y1451] | phosphorylation enrichment: 0.745

Item: PSRKDYETFQP [CTNND2_Y1154_YF] | phosphorylation enrichment: 0.667

Item: SSNPEYLSASD [INSR_Y999] | phosphorylation enrichment: 0.695

Item: KVDKEYEVHVR [GHR_Y226_R229H] | phosphorylation enrichment: 0.555

Item: RKELFYKADGE [SERPINC1_Y272] | phosphorylation enrichment: 0.638

Item: DFKIIYIVPMR [SNRNP200_Y540_A542V] | phosphorylation enrichment: 0.653

Item: AELVQYYMEHH [PTPN11_Y80] | phosphorylation enrichment: 0.954

Item: QSSALYEDRYL [ASS1_Y83] | phosphorylation enrichment: 0.74

Item: LQEQNYPAVDS [FAM114A1_Y115_L116P] | phosphorylation enrichment: 1.54

Item: LGSVVYAHSKE [KCNQ2_Y226] | phosphorylation enrichment: 0.419

Item: QNTGDDYDLYG [PTPN11_Y62_Y62D] | phosphorylation enrichment: 1.51

Item: SVVVPYEPPEL [TP53_Y220_V225L] | phosphorylation enrichment: 0.666

Item: VFSATYHPDHW [EFCAB12_Y544_P541S_YF] | phosphorylation enrichment: 0.614

Item: QSSEGYGLGDR [KIAA1210_Y564] | phosphorylation enrichment: 0.677
